System: MOLT4
Experiment: Anti-proliferative activity in other cancer cell lines (MTT)
Format: cell-based
Settings: Homo sapiens, MOLT-4, 96 h, Marrow (leukemia), 4 days
measuredAttribute: pIC50
Conceptually, pIC50 converts a concentration in mol/L into minus its log10.

The reported MOLT4 pIC50 of CCOCCn1c(Cl)c(/C=N/NC(=O)c2cc3cc(C)ccc3o2)c2ccccc21 [Example 4] is 6.52

* * *

Experiment: Pharmacokinetic (PK) test
Type: in vivo, male ICR mice
Details: male, ICR, mouse, plasma; Oral administration, 20 mg/kg; mice, n=3; read-out: AUClast, Mean
Description: Pharmacokinetic (PK) parameters of the Example compounds according to the present invention were determined using male ICR mice as follows (n=3). Pharmacokinetic (PK) parameters were measured by non-compartmental analysis of plasma concentration-time curves using Kinetica™ 4.4.1 (Thermo Fisher Scientific, USA). […] In Table below, “F” parameter was calculated using AUClast, “N/A” indicates the phrase not applicable, and “NC” indicates the phrase not calculated.
measuredAttribute: AUC(0-t)

# molecule, AUC(0-t)
records = [
    ("CCOCCn1c(Cl)c(/C=N/NC(=O)c2cc3cc(OC)ccc3o2)c2cc(OC)ccc21 [Example 15]", "18 ng·h/mL"),
    ("CCOCCn1c(Cl)c(/C=N/NC(=O)c2cc3cc(C)ccc3o2)c2ccccc21 [Example 4]", "285 ng·h/mL"),
]

# evaluate next
Value of AUC(0-t) reported for the molecule CCOCCn1c(Cl)c(/C=N/NC(=O)c2cc3cc(C)ccc3o2)c2cc(OC)ccc21 [Example 8] is 96.3 ng·h/mL
